Entry source: patent US9174998B2

Assay: Evaluation of solubility (DMSO stock into PBS, HPLC-UV)
Format: physicochemical
Settings: aqueous buffer, kinetic from dmso stock; Dulbecco's phosphate-buffered saline pH 7, room temperature, about 15 minutes shaking; values greater than 200 μM regarded as 200 μM; read-out: Test Example 3 solubility
Method: To 0.25 mL of a test solution a mentioned below was added 2.5 μL of a DMSO solution having a compound concentration of 20 mM. The resultant solution was shaken at room temperature for about 15 minutes (the conditions for the shaking are mentioned below). Subsequently, a supernatant was collected by a suction filtration under a reduced pressure. […] In this evaluation, since a value 200 μM became the upper limit operationally, all of quantification values greater than 200 μM were regarded as 200 μM. […]
Measure: solubility (µM)

- Compound: "C=CCN1CC(=O)N2[C@@H](Cc3ccc(O)cc3)C(=O)N(Cc3ccc(F)c(N4CC(N5CCN(C)CC5)C4)n3)C[C@@H]2N1C(=O)NCc1ccccc1"
  Test Value: 195
- Compound: "C=CCN1CC(=O)N2[C@@H](Cc3ccc(O)cc3F)C(=O)N(Cc3cccc(N4CC(N(C)CCN5CCOCC5)C4)n3)C[C@@H]2N1C(=O)NCc1ccccc1 [Reference Example 5]"
  Test Value: 181
- Compound: "C=CCN1CC(=O)N2[C@@H](Cc3ccc(O)cc3F)C(=O)N(Cc3cccc(N4CC(N5CCN(CC)[C@@H](C)C5)C4)n3)C[C@@H]2N1C(=O)NCc1ccccc1"
  Test Value: 197
- Compound: "C=CCN1CC(=O)N2[C@@H](Cc3ccc(O)cc3)C(=O)N(Cc3cccc(N4CC(N5CCN(C)[C@H](C)C5)C4)n3)C[C@@H]2N1C(=O)NCc1ccccc1"
  Test Value: 198
- Compound: "C=CCN1CC(=O)N2[C@@H](Cc3ccc(O)cc3)C(=O)N(Cc3cccc(N4CC(N5CCN(C)C[C@@H]5C)C4)n3)C[C@@H]2N1C(=O)NCc1ccccc1"
  Test Value: 195
